// IC50 lookup, one value per entry
Target: human recombinant PDE10A (Homo sapiens)
Sequence (Q9Y233 whole entry): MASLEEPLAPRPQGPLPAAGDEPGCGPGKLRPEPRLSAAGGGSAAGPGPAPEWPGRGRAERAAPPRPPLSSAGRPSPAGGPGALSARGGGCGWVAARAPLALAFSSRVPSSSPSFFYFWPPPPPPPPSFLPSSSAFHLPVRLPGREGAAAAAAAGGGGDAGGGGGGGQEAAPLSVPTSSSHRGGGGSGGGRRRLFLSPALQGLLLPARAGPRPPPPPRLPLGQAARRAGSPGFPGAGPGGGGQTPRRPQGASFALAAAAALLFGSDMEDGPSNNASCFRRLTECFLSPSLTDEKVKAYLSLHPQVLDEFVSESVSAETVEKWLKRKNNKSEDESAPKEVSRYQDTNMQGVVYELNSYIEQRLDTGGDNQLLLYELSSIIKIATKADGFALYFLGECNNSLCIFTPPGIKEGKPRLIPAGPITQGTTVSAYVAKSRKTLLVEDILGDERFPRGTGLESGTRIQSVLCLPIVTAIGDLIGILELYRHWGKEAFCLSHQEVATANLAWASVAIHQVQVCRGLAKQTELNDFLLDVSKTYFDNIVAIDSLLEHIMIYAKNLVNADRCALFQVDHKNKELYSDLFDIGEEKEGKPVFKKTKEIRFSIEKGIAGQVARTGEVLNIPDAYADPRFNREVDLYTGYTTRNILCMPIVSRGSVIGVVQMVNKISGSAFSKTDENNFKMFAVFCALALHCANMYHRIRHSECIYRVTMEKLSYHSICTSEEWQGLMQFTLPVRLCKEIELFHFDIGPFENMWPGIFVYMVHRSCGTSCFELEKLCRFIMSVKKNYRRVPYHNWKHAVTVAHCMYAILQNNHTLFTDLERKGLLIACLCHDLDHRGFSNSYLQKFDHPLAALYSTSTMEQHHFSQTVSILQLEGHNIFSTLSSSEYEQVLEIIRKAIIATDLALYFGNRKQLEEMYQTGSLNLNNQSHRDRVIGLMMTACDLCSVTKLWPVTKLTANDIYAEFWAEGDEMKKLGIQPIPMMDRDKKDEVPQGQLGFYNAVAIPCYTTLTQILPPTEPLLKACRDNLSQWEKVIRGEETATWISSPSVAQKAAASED
Test: enzyme assay, inhibitory potency for human recombinant PDE10A
Assay type: biochemical
Details: enzyme assay (BioCrea), read-out: IC50 hPDE10A
Answer with the number, then the unit.

Worked cases, answers included:
- inputSmiles: "COc1ccc2nnc3c(C)nc(-c4cc(OCCCCF)ccc4F)n3c2n1"
  measuredValue: "913 nM"
- inputSmiles: "COc1ccc2nnc3c(C)nc(-c4cc(OCCCF)ccc4F)n3c2n1"
  measuredValue: "318 nM"

Record COc1ccc2nnc3c(C)nc(-c4cc(OCCF)ccc4F)n3c2n1 . Reported IC50: 77 nM
